System: NCI-H460
Measurement notes: cells
Measurement setup: Homo sapiens, NCI-H460, 72 h
Description: Cytotoxicity against human H460 cells assessed as reduction in cell viability incubated for 72 hrs by MTT assay
pIC50: −log10 of the molar value.
pIC50 vs 6: at or above is satisfied, below is not satisfied.

**Query** Reported pIC50 reaches at least 6 for `COc1ccc(CCn2c(=O)c(C(=O)Nc3ccc(Oc4ccnc5cc(OCCCN6CCOCC6)c(OC)cc45)c(F)c3)nc3ccccc32)cc1` ?
**Result** not satisfied

**Query** Reported pIC50 reaches at least 6 for `COc1cc2c(Oc3ccc(NC(=O)c4nc5ccccc5n(Cc5ccccc5)c4=O)cc3F)ccnc2cc1OCCCN1CCOCC1` ?
**Result** not satisfied

**Query** Reported pIC50 reaches at least 6 for `COc1ccc(CCn2c(=O)c(C(=O)Nc3ccc(Oc4ccnc5cc(OCCCN6CCN(C)CC6)c(OC)cc45)c(F)c3)nc3ccccc32)cc1` ?
**Result** not satisfied

**Query** Reported pIC50 reaches at least 6 for `COc1cc2c(Oc3ccc(NC(=O)c4nc5ccccc5n(C5CCCCC5)c4=O)cc3F)ccnc2cc1OCCCN1CCC(C)CC1` ?
**Result** satisfied

----------
Measured metric: IC50 (nM)
Your answer should be a plain number; it is taken to be in nM.

**Query** API: value(readout= IC50, system= Hepatocyte growth factor receptor (Homo sapiens, UniProt P08581), query= `COc1cc2c(Oc3ccc(NC(=O)c4nc5ccccc5n(C5CCCCC5)c4=O)cc3F)ccnc2cc1OCCCN1CCN(C)CC1` )
**Result** 2.34

----------
Test system: HT-29
Measurement notes: cells
Measurement setup: Homo sapiens, HT-29, 72 h
Description: Cytotoxicity against human HT-29 cells assessed as reduction in cell viability incubated for 72 hrs by MTT assay
Could you please report measured IC50 for the items listed next?
Your answer should be a plain number; it is taken to be in nM.

**Query** Form field: reported IC50 of `COc1cc2c(Oc3ccc(NC(=O)c4nc5ccccc5n(Cc5ccc(F)cc5)c4=O)cc3F)ccnc2cc1OCCCN1CCCCC1`
**Result** 720

**Query** Form field: reported IC50 of `COc1cc2c(Oc3ccc(NC(=O)c4nc5ccccc5n(C5CCCCC5)c4=O)cc3F)ccnc2cc1OCCCN1CCOCC1`
**Result** 380

**Query** Form field: reported IC50 of `COc1cc2c(Oc3ccc(NC(=O)c4nc5ccccc5n(CCc5ccccc5)c4=O)cc3F)ccnc2cc1OCCCN1CCOCC1`
**Result** 350

**Query** Form field: reported IC50 of `COc1cc2c(Oc3ccc(NC(=O)c4nc5ccccc5n(C5CCCC5)c4=O)cc3F)ccnc2cc1OCCCN1CCCCC1`
**Result** 4190

**Query** Form field: reported IC50 of `COc1cc2c(Oc3ccc(NC(=O)c4nc5ccccc5n(C5CCCCC5)c4=O)cc3F)ccnc2cc1OCCCN1CCN(C)CC1`
**Result** 230

**Query** Form field: reported IC50 of `COc1cc2c(Oc3ccc(NC(=O)c4nc5ccccc5n(C5CCCCC5)c4=O)cc3F)ccnc2cc1OCCCN1CCCCC1`
**Result** 270

**Query** Form field: reported IC50 of `COc1ccc(CCn2c(=O)c(C(=O)Nc3ccc(Oc4ccnc5cc(OCCCN6CCC(C)CC6)c(OC)cc45)c(F)c3)nc3ccccc32)cc1`
**Result** 1220

**Query** Form field: reported IC50 of `COc1cc2c(Oc3ccc(NC(=O)c4nc5ccccc5n(CCc5ccccc5)c4=O)cc3F)ccnc2cc1OCCCN1CCC(C)CC1`
**Result** 1410

**Query** Form field: reported IC50 of `COc1cc2c(Oc3ccc(NC(=O)c4nc5ccccc5n(C5CCCC5)c4=O)cc3F)ccnc2cc1OCCCN1CCOCC1`
**Result** 4030

**Query** Form field: reported IC50 of `COc1cc2c(Oc3ccc(NC(=O)c4nc5ccccc5n(CCc5ccccc5)c4=O)cc3F)ccnc2cc1OCCCN1CCN(C)CC1`
**Result** 960

**Query** Form field: reported IC50 of `COc1ccc(CCn2c(=O)c(C(=O)Nc3ccc(Oc4ccnc5cc(OCCCN6CCCCC6)c(OC)cc45)c(F)c3)nc3ccccc32)cc1`
**Result** 940

**Query** Form field: reported IC50 of `COc1cc2c(Oc3ccc(NC(=O)c4nc5ccccc5n(C5CCCC5)c4=O)cc3F)ccnc2cc1OCCCN1CCC(C)CC1`
**Result** 4430

**Query** Form field: reported IC50 of `COc1ccc(CCn2c(=O)c(C(=O)Nc3ccc(Oc4ccnc5cc(OCCCN6CCOCC6)c(OC)cc45)c(F)c3)nc3ccccc32)cc1`
**Result** 4940

**Query** Form field: reported IC50 of `COc1cc2c(Oc3ccc(NC(=O)c4nc5ccccc5n(CCc5ccccc5)c4=O)cc3F)ccnc2cc1OCCCN1CCCCC1`
**Result** 870

**Query** Form field: reported IC50 of `COc1cc2c(Oc3ccc(NC(=O)c4nc5ccccc5n(Cc5ccc(F)cc5)c4=O)cc3F)ccnc2cc1OCCCN1CCN(C)CC1`
**Result** 1830

**Query** Form field: reported IC50 of `COc1cc2c(Oc3ccc(NC(=O)c4nc5ccccc5n(Cc5ccccc5)c4=O)cc3F)ccnc2cc1OCCCN1CCOCC1`
**Result** 1120

**Query** Form field: reported IC50 of `COc1cc2c(Oc3ccc(NC(=O)c4nc5ccccc5n(C5CCCCC5)c4=O)cc3F)ccnc2cc1OCCCN1CCC(C)CC1`
**Result** 610

**Query** Form field: reported IC50 of `COc1cc2c(Oc3ccc(NC(=O)c4nc5ccccc5n(Cc5ccc(F)cc5)c4=O)cc3F)ccnc2cc1OCCCN1CCOCC1`
**Result** 2380

**Query** Form field: reported IC50 of `COc1ccc(CCn2c(=O)c(C(=O)Nc3ccc(Oc4ccnc5cc(OCCCN6CCN(C)CC6)c(OC)cc45)c(F)c3)nc3ccccc32)cc1`
**Result** 790

**Query** Form field: reported IC50 of `COc1cc2c(Oc3ccc(NC(=O)c4nc5ccccc5n(Cc5ccc(F)cc5)c4=O)cc3F)ccnc2cc1OCCCN1CCC(C)CC1`
**Result** 380

**Query** Form field: reported IC50 of `COc1cc2c(Oc3ccc(NC(=O)c4nc5ccccc5n(C5CCCC5)c4=O)cc3F)ccnc2cc1OCCCN1CCN(C)CC1`
**Result** 2490
